assay.target: Protein kinase C beta type (Homo sapiens) (UniProt P05771);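 further: measured against the PKC-beta2 splice variant, with values reported as mean percent inhibition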
Sequence (P05771 2-671 limits assumed): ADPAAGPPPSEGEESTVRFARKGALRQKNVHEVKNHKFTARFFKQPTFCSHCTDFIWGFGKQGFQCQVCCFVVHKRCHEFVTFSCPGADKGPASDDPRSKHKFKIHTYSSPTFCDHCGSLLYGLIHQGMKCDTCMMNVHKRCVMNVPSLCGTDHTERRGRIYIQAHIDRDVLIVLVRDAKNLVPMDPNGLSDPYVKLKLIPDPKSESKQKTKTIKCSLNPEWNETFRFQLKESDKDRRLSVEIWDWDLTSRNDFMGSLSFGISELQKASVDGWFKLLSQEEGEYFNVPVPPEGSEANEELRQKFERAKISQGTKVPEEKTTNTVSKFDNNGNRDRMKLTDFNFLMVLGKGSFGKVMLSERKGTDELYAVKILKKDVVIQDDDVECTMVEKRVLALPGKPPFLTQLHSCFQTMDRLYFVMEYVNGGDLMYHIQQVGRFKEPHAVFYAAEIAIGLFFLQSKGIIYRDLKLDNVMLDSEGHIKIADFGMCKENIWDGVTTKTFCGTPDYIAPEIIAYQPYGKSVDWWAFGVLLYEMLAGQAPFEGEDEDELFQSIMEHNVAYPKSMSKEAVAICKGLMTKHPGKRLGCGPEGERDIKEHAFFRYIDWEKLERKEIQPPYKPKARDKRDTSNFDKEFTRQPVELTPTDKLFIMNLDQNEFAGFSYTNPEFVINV
protocol.conditions: at 0.1 µM
Description: GSK_PKIS: PKC-beta2 (splice variant) mean inhibition at 0.1 uM [Nanosyn]
Assign inhibition to each entry below.
Answers are plain numbers, in %.

Example cases with answers are listed next.
CC1=C(C(=O)Nc2ccc3[nH]nc(C)c3c2)C(c2ccc(C(F)(F)F)cc2)CC(=O)N1 (stereo not given) :: 0.62
CCCNc1cccc(-n2ncc3c(N/N=C/c4ccncc4)ncnc32)c1 :: 3.39
CN(C)CCNC(=O)Nc1ccc(N(C)c2ccnc(Nc3ccc(CS(C)(=O)=O)cc3)n2)cc1 :: 0.79
COC(=O)Nc1nc2cc(Oc3ccc(NC(=O)Nc4ccccc4)cc3)ccc2[nH]1 :: 0.28

Report inhibition for every entry below.
1. Cc1cc(O)cc(C)c1/C=C/c1cncc(C(=O)OC(C)(C)C)c1
2. CS(=O)(=O)Nc1ccc(-c2ccc3c(NC(=O)C4CC4)n[nH]c3c2)cc1
3. COc1cccc(-n2ncc3c(N/N=C/c4ccc(C(=O)NCCN(C)C)cc4)ncnc32)c1
4. N#Cc1cccc(Nc2ncc(-c3ccccc3)o2)c1
5. CCS(=O)(=O)c1ccc(OC)c(Nc2ncc(-c3cccc(F)c3)o2)c1
6. COc1ccc(Nc2ncc(-c3ccccc3)o2)cc1OC

// result
1. 1.37
2. 1.18
3. 1.88
4. 0.6
5. 1.9
6. -0.24

* * *

assay.target: Serine/threonine-protein kinase 4 (Homo sapiens) (UniProt Q13043);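 further: mean inhibition of MST1, part of the GSK PKIS dataset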
Sequence (Q13043 whole entry): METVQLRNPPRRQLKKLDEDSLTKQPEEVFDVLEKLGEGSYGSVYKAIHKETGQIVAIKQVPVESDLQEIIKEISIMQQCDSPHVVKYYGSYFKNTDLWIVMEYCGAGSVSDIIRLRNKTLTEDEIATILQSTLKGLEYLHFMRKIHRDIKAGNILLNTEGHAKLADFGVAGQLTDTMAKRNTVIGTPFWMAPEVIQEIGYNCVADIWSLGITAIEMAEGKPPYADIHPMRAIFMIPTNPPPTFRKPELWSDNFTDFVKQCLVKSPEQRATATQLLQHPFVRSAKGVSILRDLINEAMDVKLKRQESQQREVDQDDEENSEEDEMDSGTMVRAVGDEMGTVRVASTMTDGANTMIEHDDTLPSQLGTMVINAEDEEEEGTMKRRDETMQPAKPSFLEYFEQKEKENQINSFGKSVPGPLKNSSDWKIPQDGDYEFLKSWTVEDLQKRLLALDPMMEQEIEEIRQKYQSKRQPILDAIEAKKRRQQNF
protocol.conditions: at 1 µM
experimental.readout: inhibition

Examples with answers:
CCOc1ccc2c(-c3ccnc(Nc4cc(OC)cc(C(F)(F)F)c4)n3)cnn2n1 :: 1.83%
NS(=O)(=O)c1cccc(N/C=C2\C(=O)Nc3ccccc32)c1 :: 26.1%
c1cnn2ncc(-c3ccnc(NCCCN4CCOCC4)n3)c2c1 :: 1.9%
CN(c1ccc(NC(=O)NCCN2CCOCC2)cc1)c1ccnc(Nc2ccc(CS(C)(=O)=O)cc2)n1 :: 18.8%

Here is the next item to consider.
// query So what's the measured inhibition for this one? "COc1ccc2ncn(-c3cc(O[C@H](C)c4ccccc4C(F)(F)F)c(C(N)=O)s3)c2c1"
// result 22.5%

* * *

assay.target: Interleukin-1 receptor-associated kinase 4 (Homo sapiens);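 further: mean inhibition values, from the GSK PKIS dataset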
protocol.conditions: at 1 µM
experimental.readout: inhibition (%)
Numbers only, in %.

Solved cases below.
CS(=O)(=O)Nc1ccc(-c2ccc3c(NC(=O)C4CC4)n[nH]c3c2)cc1 :: 1.75
FC(F)(F)CNc1nccc(-c2cnn3ncccc23)n1 :: 1.21

// each compound listed below needs its inhibition
1. CS(=O)(=O)CCNCc1ccc(-c2ccc3ncnc(Nc4ccc(OCc5ccccc5)cc4)c3c2)o1
2. COc1c(C(N)=O)cc(-c2ccc(Cl)cc2)cc1-c1ccc(S(N)(=O)=O)cc1
3. CS(=O)(=O)Nc1ccc(-c2cc(-c3ccccc3)cc(C(N)=O)c2N)cc1
4. OCCCNc1nccc(-c2c(-c3ccc(F)cc3)nn3cc(C(F)(F)F)ccc23)n1
5. COc1ccccc1-c1cc(/C=C2\C(=O)Nc3ncc(Br)cc32)cc(Br)c1O
6. CCS(=O)(=O)c1ccc(OC)c(Nc2ncc(-c3cccc(C(C)=O)c3)o2)c1
7. COc1cc(N2CCN(C(C)C)CC2)ccc1Nc1nc(Nc2cccc3ncccc23)c2cc[nH]c2n1
8. CCn1c(-c2nonc2N)nc2cncc(C(=O)NCCNC)c21

// result
1.78
1.85
1.37
1.48
1.85
1.19
-0.29
3.05

State recorded inhibition for all listed compounds.
1. COc1cc(N2CCN(C(C)C)CC2)ccc1Nc1nc(Nc2cccc(F)c2C(=O)O)c2cc[nH]c2n1
2. CCCNc1cccc(-n2ncc3c(N/N=C/c4ccncc4)ncnc32)c1
3. Cc1c2ccc(N(C)c3ccnc(Nc4cccc(S(N)(=O)=O)c4)n3)cc2nn1C
4. Cn1c(-c2nonc2N)nc2cnccc21
5. c1cnn2ncc(-c3ccnc(NCCCN4CCOCC4)n3)c2c1
6. Cc1nnc(-c2cccc(-c3ccc(C(=O)NCC4CC4)cc3)c2)o1
7. CN(c1ccc(NC(=O)NCCN2CCOCC2)cc1)c1ccnc(Nc2ccc(CS(C)(=O)=O)cc2)n1

// result
1. 2.25
2. 0.71
3. 3.25
4. 1.21
5. 1.39
6. 2.66
7. 1.07

* * *

assay.target: Serine/threonine-protein kinase 10 (Homo sapiens) (UniProt O94804);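 further: reported value is the mean percent inhibition of LOK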
Sequence (O94804 whole entry, looked up): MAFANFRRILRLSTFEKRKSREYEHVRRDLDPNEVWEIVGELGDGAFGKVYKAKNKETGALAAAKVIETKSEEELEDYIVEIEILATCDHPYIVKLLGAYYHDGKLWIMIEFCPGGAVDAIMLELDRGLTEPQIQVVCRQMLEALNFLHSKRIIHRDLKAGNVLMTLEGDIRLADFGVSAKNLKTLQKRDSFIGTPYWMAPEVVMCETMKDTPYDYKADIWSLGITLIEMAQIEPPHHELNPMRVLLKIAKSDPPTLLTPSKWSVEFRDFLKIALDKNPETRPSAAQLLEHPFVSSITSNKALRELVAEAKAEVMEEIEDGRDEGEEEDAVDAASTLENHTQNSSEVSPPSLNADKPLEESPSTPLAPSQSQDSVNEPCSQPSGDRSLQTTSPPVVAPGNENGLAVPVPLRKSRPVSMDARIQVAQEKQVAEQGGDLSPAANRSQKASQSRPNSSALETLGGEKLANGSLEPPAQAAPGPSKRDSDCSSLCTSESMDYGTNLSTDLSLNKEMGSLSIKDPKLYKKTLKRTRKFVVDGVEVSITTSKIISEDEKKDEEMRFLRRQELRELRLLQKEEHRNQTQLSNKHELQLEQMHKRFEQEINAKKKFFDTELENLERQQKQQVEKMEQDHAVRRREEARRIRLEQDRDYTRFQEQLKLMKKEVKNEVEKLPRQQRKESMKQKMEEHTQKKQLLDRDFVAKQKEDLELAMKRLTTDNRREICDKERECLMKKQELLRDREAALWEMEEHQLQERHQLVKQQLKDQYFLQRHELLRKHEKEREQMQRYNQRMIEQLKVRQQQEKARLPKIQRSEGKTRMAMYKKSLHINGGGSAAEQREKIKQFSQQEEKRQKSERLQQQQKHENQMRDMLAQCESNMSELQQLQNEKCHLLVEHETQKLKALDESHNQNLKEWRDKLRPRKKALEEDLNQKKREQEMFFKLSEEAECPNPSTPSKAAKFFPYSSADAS
protocol.conditions: at 1 µM
experimental.readout: inhibition (%)
Numbers only, in %.

# per-item lookup of inhibition; items listed below
1. COc1cc(N2CCN(C(C)C)CC2)ccc1Nc1nc(Nc2cccc3ncccc23)c2cc[nH]c2n1
2. NC(=O)c1ccc2c(-c3ccnc(NCCCO)n3)c(-c3ccc(F)cc3)nn2c1
3. N#Cc1cccc(Nc2ncc(-c3ccccc3)o2)c1
4. O=C(O[C@H]1CN[C@H](C#Cc2cc3ncnc(Nc4ccc5c(cnn5Cc5ccccc5)c4)c3s2)C1)N1CCOCC1
5. CNC(=O)c1ncccc1Nc1nc(Nc2cc3c(cc2OC)CCCN3C(=O)CN(C)C)nc2[nH]ccc12
6. NS(=O)(=O)c1cccc(N/C=C2\C(=O)Nc3ccccc32)c1

// result
[0.74, 12.3, 3.84, 7.07, 4.81, 9.72]

* * *

System: Platelet-derived growth factor receptor alpha (Homo sapiens), P16234 [D842V]
Sequence (P16234 whole entry D842V): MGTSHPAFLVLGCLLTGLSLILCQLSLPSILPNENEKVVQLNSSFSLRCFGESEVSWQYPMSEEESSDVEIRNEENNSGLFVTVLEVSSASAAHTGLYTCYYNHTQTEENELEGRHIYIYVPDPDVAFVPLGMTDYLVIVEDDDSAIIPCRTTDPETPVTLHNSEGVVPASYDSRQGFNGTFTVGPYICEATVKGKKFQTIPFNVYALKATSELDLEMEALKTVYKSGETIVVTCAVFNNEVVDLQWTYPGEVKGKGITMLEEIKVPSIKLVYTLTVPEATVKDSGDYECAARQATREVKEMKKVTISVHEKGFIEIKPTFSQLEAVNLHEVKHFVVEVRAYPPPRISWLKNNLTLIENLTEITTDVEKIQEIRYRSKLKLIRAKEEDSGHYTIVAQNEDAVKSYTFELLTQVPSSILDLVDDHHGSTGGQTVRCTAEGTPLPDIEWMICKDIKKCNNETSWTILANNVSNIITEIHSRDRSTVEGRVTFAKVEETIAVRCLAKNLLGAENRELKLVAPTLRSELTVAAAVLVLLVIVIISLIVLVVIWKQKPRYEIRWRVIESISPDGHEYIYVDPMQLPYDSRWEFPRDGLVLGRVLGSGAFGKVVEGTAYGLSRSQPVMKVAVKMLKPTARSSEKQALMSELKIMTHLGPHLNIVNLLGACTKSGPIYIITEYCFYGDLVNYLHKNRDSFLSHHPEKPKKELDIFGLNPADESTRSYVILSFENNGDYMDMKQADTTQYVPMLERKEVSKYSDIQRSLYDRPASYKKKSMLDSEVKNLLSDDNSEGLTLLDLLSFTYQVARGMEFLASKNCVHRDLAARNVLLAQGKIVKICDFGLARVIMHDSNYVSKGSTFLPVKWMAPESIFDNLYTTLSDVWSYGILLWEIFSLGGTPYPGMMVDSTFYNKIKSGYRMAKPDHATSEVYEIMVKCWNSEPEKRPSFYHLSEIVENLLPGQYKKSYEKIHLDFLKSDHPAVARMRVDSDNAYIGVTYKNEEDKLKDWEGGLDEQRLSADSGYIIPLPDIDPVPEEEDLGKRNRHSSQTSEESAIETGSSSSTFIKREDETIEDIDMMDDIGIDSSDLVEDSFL
protocol.conditions: at 1 µM
// not met strictly below 5% in inhibition; met otherwise

Example entries and their recorded answers appear below.
CC1(C)CC(n2cnc(-c3ccc(F)cc3)c2-c2ccnc(N)n2)CC(C)(C)N1 :: not met
O=C(Nc1n[nH]c2nnc(-c3cccnc3)cc12)C1CC1 :: not met
NS(=O)(=O)c1ccc(N/N=C2\C(=O)Nc3cccc(CCc4ccncc4)c32)cc1 :: met
COc1cccc(Nc2nccc(-c3cnn4ncccc34)n2)c1 :: met
CCS(=O)(=O)c1ccc(OC)c(Nc2ncc(-c3cccc(F)c3)o2)c1 :: met

// query Textbook exercise: given the entry "CS(=O)(=O)Nc1ccc(-c2ccc3c(NC(=O)C4CC4)n[nH]c3c2)cc1" , state whether its inhibition is greater than or equal to 5%.
// result met

// query Would you say "CS(=O)(=O)CCNCc1ccoc1-c1ccc2ncnc(Nc3ccc(OCc4ccccc4)cc3)c2c1" shows inhibition at minimum 5%?
// result not met

// query Reported inhibition reaches at least 5% for "COc1cccc(-n2ncc3c(N/N=C/c4ccc(C(=O)NCCN(C)C)cc4)ncnc32)c1" ?
// result met

// query I'd appreciate it if you could say whether "Fc1ccc(Nc2nccc(-c3c(-c4ccc(C(F)(F)F)cc4)nn4ncccc34)n2)cc1F" has inhibition at least equal to 5%.
// result not met

* * *

assay.target: Serine/threonine-protein kinase PAK 2 (Homo sapiens) (UniProt Q13177);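 further: values are mean percent inhibition of PAK2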
protocol.conditions: at 0.1 µM
Hi there, I'd appreciate the recorded inhibition for every entry that follows.
Numbers only, in %.

CCS(=O)(=O)c1ccc(OC)c(Nc2ncc(-c3cccc(F)c3)o2)c1 :: 1.97
CCn1c(-c2nonc2N)nc2cncc(C(=O)NCCNC)c21 :: 1.98

For every listed record, write down its inhibition.
1. Fc1cccc(COc2ccc(Nc3ncncc3C#Cc3ccccc3)cc2Cl)c1
2. Cc1nnc(-c2cccc(-c3ccc(C(=O)NCC4CC4)cc3)c2)o1
3. Cc1c2ccc(N(C)c3ccnc(Nc4cccc(S(N)(=O)=O)c4)n3)cc2nn1C
4. COc1cc2c(cc1Nc1nc(Nc3cccc(F)c3C(N)=O)c3cc[nH]c3n1)N(C(=O)CN1CCN(C(C)C)CC1)CC2
5. O=C1Nc2ccccc2/C1=C1\CCc2cc(O)ccc21
6. CN(C)CCNC(=O)Nc1ccc(N(C)c2ccnc(Nc3ccc(CS(C)(=O)=O)cc3)n2)cc1
7. COc1ccc(Nc2ncc(-c3ccccc3)o2)cc1OC
8. CNC(=O)c1sc(-n2cnc3cc(OC)c(OC)cc32)cc1OCc1ccccc1C(F)(F)F

// result
[1.86, 2.54, 3.47, 1.01, 2.86, 1.79, 0.18, 0.12]

* * *

assay.target: Serine/threonine-protein kinase D3 (Homo sapiens) (UniProt O94806);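 further: values are mean inhibition figures against PRKD3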
Sequence (O94806 whole entry): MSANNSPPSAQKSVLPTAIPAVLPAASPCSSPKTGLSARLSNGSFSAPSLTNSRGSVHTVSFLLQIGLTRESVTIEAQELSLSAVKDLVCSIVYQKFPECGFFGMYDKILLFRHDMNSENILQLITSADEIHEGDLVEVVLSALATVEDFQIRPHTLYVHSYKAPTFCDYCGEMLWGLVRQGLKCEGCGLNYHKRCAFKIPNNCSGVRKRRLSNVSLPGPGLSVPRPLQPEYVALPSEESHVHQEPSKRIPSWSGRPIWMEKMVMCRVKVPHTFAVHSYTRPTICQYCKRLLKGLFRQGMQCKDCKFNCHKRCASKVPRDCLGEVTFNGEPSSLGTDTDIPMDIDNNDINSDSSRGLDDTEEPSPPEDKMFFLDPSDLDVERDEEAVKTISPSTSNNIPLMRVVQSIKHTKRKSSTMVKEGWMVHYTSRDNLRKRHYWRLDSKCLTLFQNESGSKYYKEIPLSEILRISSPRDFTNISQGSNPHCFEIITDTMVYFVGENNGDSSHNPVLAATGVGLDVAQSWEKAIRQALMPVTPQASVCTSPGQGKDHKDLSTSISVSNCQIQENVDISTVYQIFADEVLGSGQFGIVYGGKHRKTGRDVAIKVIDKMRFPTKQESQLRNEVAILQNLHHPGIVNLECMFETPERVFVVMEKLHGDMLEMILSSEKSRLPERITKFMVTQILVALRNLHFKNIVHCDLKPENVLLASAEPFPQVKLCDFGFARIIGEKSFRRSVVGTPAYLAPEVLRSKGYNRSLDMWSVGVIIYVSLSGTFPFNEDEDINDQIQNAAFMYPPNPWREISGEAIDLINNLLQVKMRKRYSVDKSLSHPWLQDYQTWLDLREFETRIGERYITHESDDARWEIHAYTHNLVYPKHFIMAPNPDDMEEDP
protocol.conditions: at 1 µM
experimental.readout: inhibition (%)
Numbers only, in %.

Worked examples follow.
CNC(=O)c1sc(-n2cnc3cc(OC)c(OC)cc32)cc1OCc1ccccc1C(F)(F)F :: 4.54
Cc1c2ccc(N(C)c3ccnc(Nc4cccc(S(N)(=O)=O)c4)n3)cc2nn1C :: 2.71

// next entry
// query What value of inhibition has been recorded for this entry: "N#Cc1ccc2c(-c3ccnc(NC4CC4)n3)c(-c3ccc(F)cc3)nn2c1"
// result 41.7

* * *

assay.target: High affinity nerve growth factor receptor (Homo sapiens) (UniProt P04629);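 further: each value is the mean percent inhibition of TRKA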
Sequence (P04629 33-796 limits assumed): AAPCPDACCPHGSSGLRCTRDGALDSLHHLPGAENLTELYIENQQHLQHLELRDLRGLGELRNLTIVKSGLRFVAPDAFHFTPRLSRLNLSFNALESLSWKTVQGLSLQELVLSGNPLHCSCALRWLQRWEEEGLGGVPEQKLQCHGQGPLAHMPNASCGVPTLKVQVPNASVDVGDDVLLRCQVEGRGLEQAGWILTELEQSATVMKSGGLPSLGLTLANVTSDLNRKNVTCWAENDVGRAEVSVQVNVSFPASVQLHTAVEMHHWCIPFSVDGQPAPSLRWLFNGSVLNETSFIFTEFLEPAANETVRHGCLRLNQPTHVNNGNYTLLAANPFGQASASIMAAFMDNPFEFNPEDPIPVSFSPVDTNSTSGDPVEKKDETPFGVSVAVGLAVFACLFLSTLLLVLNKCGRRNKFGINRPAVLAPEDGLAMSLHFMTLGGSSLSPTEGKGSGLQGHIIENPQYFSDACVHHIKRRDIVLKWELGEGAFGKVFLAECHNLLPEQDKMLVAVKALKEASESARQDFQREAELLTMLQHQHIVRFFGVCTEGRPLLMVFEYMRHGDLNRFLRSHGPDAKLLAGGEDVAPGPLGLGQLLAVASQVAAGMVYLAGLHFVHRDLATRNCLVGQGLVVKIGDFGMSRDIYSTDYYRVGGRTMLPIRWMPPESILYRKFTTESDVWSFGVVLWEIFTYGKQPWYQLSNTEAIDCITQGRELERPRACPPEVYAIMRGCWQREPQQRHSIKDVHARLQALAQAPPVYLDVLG
protocol.conditions: at 1 µM
experimental.readout: inhibition
Please don't drop the unit; write it after the number.

Reference set (5 entries):
CN(c1ccc(NC(=O)NCCN2CCOCC2)cc1)c1ccnc(Nc2ccc(CS(C)(=O)=O)cc2)n1 :: 5.98%
O=C(O[C@H]1CN[C@H](C#Cc2cc3ncnc(Nc4ccc5c(ccn5Cc5cc(F)ccc5F)c4)c3s2)C1)N1CCOCC1 :: 0.61%
COc1cc(N2CCN(C(C)C)CC2)ccc1Nc1nc(Nc2cccc(F)c2C(=O)O)c2cc[nH]c2n1 :: 0.85%
Cc1c2ccc(N(C)c3ccnc(Nc4cccc(S(N)(=O)=O)c4)n3)cc2nn1C :: 7.91%
COC(=O)Nc1nc2ccc(Oc3ccc(NC(=O)Nc4cc(C(F)(F)F)ccc4F)cc3)cc2s1 :: 81.5%

# per-item lookup of inhibition; items listed below
1. CCS(=O)(=O)c1ccc(OC)c(Nc2ncc(-c3cccc(C(C)=O)c3)o2)c1
2. O=C(O[C@H]1CN[C@H](C#Cc2cc3ncnc(Nc4ccc(OCc5cccc(F)c5)c(Cl)c4)c3s2)C1)N1CCOCC1
3. COc1cc(Nc2ncc(-c3ccccc3)o2)cc(OC)c1
4. COc1ccc(Nc2ncc(-c3ccccc3)o2)cc1OC
5. Cc1ccc(-c2cc3c(NC(=O)C4CC4)ncnc3o2)cc1

// result
1. 9.16%
2. 0.52%
3. 19.7%
4. 14.1%
5. 1.15%
